observed_property: melting point

- structure: "COc1ccc(N(c2ccccc2)c2ccc(-c3ccc(-c4ccc(N(c5ccccc5)c5ccc(OC)cc5C)cc4)cc3)cc2)c(C)c1"
  measured_result: "180.8 to 183.4 °C"
- structure: "Cc1ccc(N(c2ccc(C)cc2)c2ccc(-c3ccc(-c4ccc(N(c5ccc(C)cc5)c5ccc(C)cc5)cc4)cc3)cc2)cc1"
  measured_result: "232.5 to 233.5 °C"
- structure: "Cc1ccc(N(c2ccc(-c3ccc(-c4ccc(N(c5ccc(C)cc5)c5ccc6c(c5)CCC6)cc4)cc3)cc2)c2ccc3c(c2)CCC3)cc1"
  measured_result: "207.4 to 208.1 °C"
- structure: "Cc1ccc(N(c2ccccc2)c2ccc(-c3ccc(-c4ccc(N(c5ccccc5)c5ccc(C)cc5)cc4)cc3)cc2)cc1"
  measured_result: "167.2 to 168.2 °C"
- structure: "COc1ccc(N(c2ccc(-c3ccccc3)cc2)c2ccc(-c3ccc(-c4ccc(N(c5ccc(-c6ccccc6)cc5)c5ccc(OC)cc5C)cc4)cc3)cc2)c(C)c1"
  measured_result: "232.6 to 233.2 °C"

---

# experimental_details: Solubility in organic solvents
# Format: physicochemical
# run_parameters: 25° C.; amount of solute (g) based on 100 ml of solvent; 1,2-dichloroethane

- structure: "COc1ccc(N(c2ccccc2)c2ccc(-c3ccc(-c4ccc(N(c5ccccc5)c5ccc(OC)cc5C)cc4)cc3)cc2)c(C)c1"
  Solubility in 1,2-Dichloroethane, g/100 ml: 3.5
- structure: "Cc1ccc(N(c2ccc(-c3ccc(-c4ccc(N(c5ccc(C)cc5)c5ccc6c(c5)CCC6)cc4)cc3)cc2)c2ccc3c(c2)CCC3)cc1"
  Solubility in 1,2-Dichloroethane, g/100 ml: 4.2
- structure: "Cc1ccc(N(c2ccc(C)cc2)c2ccc(-c3ccc(-c4ccc(N(c5ccc(C)cc5)c5ccc(C)cc5)cc4)cc3)cc2)cc1"
  Solubility in 1,2-Dichloroethane, g/100 ml: 2.3
